Use 50 °C as the dividing line for flash point, with the line itself on the 1 (yes) side and lower values as 0 (no).

- COMPOUND: "CCCCCC [hexane]"
  LABEL: "0 (no)"

Ask: Hello, I need to know if CCCCCC#N [hexanenitrile] has measured flash point not below 50 °C. Thanks!
Reply: 0 (no)

Ask: Try the compound CCCCCCCCCCCS [1-undecanethiol]
Reply: 1 (yes)

Ask: Try the compound Cc1cccc(C)c1 [m-xylene]
Reply: 0 (no)

Ask: Try the compound CCCCCCCCCCl [1-chlorononane]
Reply: 1 (yes)

Ask: Try the compound CCC(CC)C(C)C [3-ethyl-2-methylpentane]
Reply: 0 (no)

----------
VALUE KIND: flash point (°C)
Answers are plain numbers, in °C.

Would you be so kind as to report flash point for each listed record?
1. CCC(=O)CC(C)CC (stereo not drawn) [5-methyl-3-heptanone]
2. CCCCCCC=O [heptanal]
3. C=C1CCCCC1 [methylenecyclohexane]
4. Clc1ccc(Cl)cc1 [p-dichlorobenzene]
5. C1CC1 [cyclopropane]
6. Cn1cccc1 [1-methylpyrrole]

Reply:
43
41
-6
66
-95
15

----------
Hi there, I'd appreciate the recorded flash point for every entry that follows.
Answers are plain numbers, in °C.

These recorded examples may help you get a feel for the data.
- COMPOUND: "CC(C)(C)Cc1ccccc1"
  UNIT: "°C"
  flash point: 50.1
- COMPOUND: "CCCCCCc1ccccc1"
  UNIT: "°C"
  flash point: 83.6
- COMPOUND: "CCCCc1ccccc1"
  UNIT: "°C"
  flash point: 58.1
- COMPOUND: "CCc1cccc(C)c1C"
  UNIT: "°C"
  flash point: 65.1

Would you be so kind as to report flash point for each listed record?
1. CCc1cccc(C(C)C)c1
2. CCc1ccc(C(C)C)cc1

Reply:
1. 63
2. 65.8

----------
Hi there, I'd appreciate the recorded flash point for every entry that follows.
Answers are plain numbers, in °C.

These recorded examples may help you get a feel for the data.
- COMPOUND: "C[Si](C)(C)O[Si](C)(C)O[Si](C)(C)C"
  flash point [°C]: 30.00
- COMPOUND: "C[Si](C)(C)O[Si](C)(C)O[Si](C)(C)O[Si](C)(C)O[Si](C)(C)O[Si](C)(C)O[Si](C)(C)O[Si](C)(C)C"
  flash point [°C]: 144.00

Would you be so kind as to report flash point for each listed record?
1. C[Si](C)(C)OC(=O)C(F)(F)F [Trimethylsilyltrifluoroacetate]
2. C[Si](Cl)(Cl)C(Cl)Cl

Reply:
0.00
28.00

----------
Hi there, I'd appreciate the recorded flash point for every entry that follows.
Answers are plain numbers, in °C.

- COMPOUND: "CC/C=C\\CC [cis-3-hexene]"
  flash point, °C: -25
- COMPOUND: "CN(C)C1CCCCC1"
  flash point, °C: 41
- COMPOUND: "CCc1ccccc1Br"
  flash point, °C: 79

Would you be so kind as to report flash point for each listed record?
1. CC1CCCCC1=O (stereo unspecified)
2. CCCCOC(=O)c1ccccc1 [butylbenzoate]
3. CCCCCCCCCCN

Reply:
1: 46; 2: 107; 3: 85

----------
VALUE KIND: flash point (°C)
One number for each entry, in °C.

These recorded examples may help you get a feel for the data.
- COMPOUND: "CCCCOCC"
  MEASUREMENT: -5
- COMPOUND: "C/C=C\\C(C)C [cis-4-methyl-2-pentene]"
  MEASUREMENT: -33
- COMPOUND: "CC1CCCC1=O (configuration not stated)"
  MEASUREMENT: 26
- COMPOUND: "CSCCl [chloromethylmethylsulfide]"
  MEASUREMENT: 17
- COMPOUND: "C=CCCCCCCCCCCCCCCCC"
  MEASUREMENT: 154

Would you be so kind as to report flash point for each listed record?
1. CNCCO
2. CCCC(=O)OC(C)C [isopropylbutanoate]
3. CC1(C)CCCC1
4. CC(C)C(C)S (configuration not stated)
5. c1ccc2c(c1)CCCC2 [1,2,3,4-tetrahydronaphthalene]
6. C=CCCCCCCCCC
7. C/C=C/CC [trans-2-pentene]

Reply:
72
24
-16
9
71
54
-45
